For each record, write down the corresponding yeast fitness (ln).
B1: tRNA (parent)
chain: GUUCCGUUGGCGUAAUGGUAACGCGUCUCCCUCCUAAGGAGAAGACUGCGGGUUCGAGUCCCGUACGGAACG

variants of: B1; assay: yeast fitness, log relative to wild type (ln ratio); higher = fitter; tRNA-Arg(CCU), competitive growth, 37 C, 1 M NaCl

-- ask Item AUUCCGUUGGCGUAAUGGUAACGCGUUUCCCUCCUAAGGAGACGAUUGCGGGUUCGAGUCCCGUAAGGAUCG [G1A C27U A43C C46U C66A A70U] has what recorded yeast fitness (ln)?
-- reply -0.155

-- ask Next entry: ACUCCGUUGGCGUAAUGGUAACGCGUCUCCCUCCUAAGGAGAAGAUUGCGGGUUCGAGUCCCGUACGGGGCG [G1A U2C C46U A69G A70G]
-- reply -0.029

-- ask Next entry: GUUCCGUUGGCGUAAUGGUAACGCGUCUCCCUCCUAAGGAGACGAUUGCGGGUUCGAGUCCCGUAAGGAUUG [A43C C46U C66A A70U C71U]
-- reply -0.128

-- ask Next entry: GUUCCGUUGGCGUAAUGGUAACGCGUUUCCCUCCUAAGGAGACGACUGCGGGUUCGAGUCCCGUAAGGAACG [C27U A43C C66A]
-- reply -0.0618

-- ask Next entry: GGUCCGUUGGCGUAAUGGUAACGCGUUUCCCUCCUAAGGAGACGAUUGCGGGUUCGAGUCCCGUAAGGAGUG [U2G C27U A43C C46U C66A A70G C71U]
-- reply -0.162

-- ask Next entry: GUUCCUUUGGCGUAAUGGUAACGCGUUUCCCUCCUAAGGAGAAGACUGCGGGUUCGAGUCCCGUAUGGAUUG [G6U C27U C66U A70U C71U]
-- reply -0.36

-- ask Next entry: AGUCCUUUGGCGUAAUGGUAACGCGUCUCCCUCCUAAGGAGAAGAUUGCGGGUUCGAGUCCCGUAUGGGUUG [G1A U2G G6U C46U C66U A69G A70U C71U]
-- reply -0.441

-- ask Next entry: GCUCCUUUGGCGUAAUGGUAACGCGUCUCCCUCCUAAGGAGAAGAUUGCGGGUUCGAGUCCCGUAAGGAACG [U2C G6U C46U C66A]
-- reply -0.0276

-- ask Next entry: GCUCCUUUGGCGUAAUGGUAACGCGUUUCCCUCCUAAGGAGAAGACUGCGGGUUCGAGUCCCGUAAGGAUCG [U2C G6U C27U C66A A70U]
-- reply -0.16

-- ask Next entry: GUUCCGUUGGCGUAAUGGUAACGCGUUUCCCUCCUAAGGAGACGACUGCGGGUUCGAGUCCCGUAUGGAUUG [C27U A43C C66U A70U C71U]
-- reply -0.326

-- ask Next entry: GGUCCAUUGGCGUAAUGGUAACGCGUCUCCCUCCUAAGGAGACGACUGCGGGUUCGAGUCCCGUACGGAGUG [U2G G6A A43C A70G C71U]
-- reply -0.18

-- ask Next entry: GCUCCGUUGGCGUAAUGGUAACGCGUCUCCCUCCUAAGGAGACGACUGCGGGUUCGAGUCCCGUACGGGUCG [U2C A43C A69G A70U]
-- reply -0.235

-- ask Next entry: GUUCCAUUGGCGUAAUGGUAACGCGUUUCCCUCCUAAGGAGAAGACUGCGGGUUCGAGUCCCGUAUGGGGCG [G6A C27U C66U A69G A70G]
-- reply -0.368

-- ask Next entry: AGUCCUUUGGCGUAAUGGUAACGCGUCUCCCUCCUAAGGAGAAGACUGCGGGUUCGAGUCCCGUAAGGGUCG [G1A U2G G6U C66A A69G A70U]
-- reply -0.293

-- ask Next entry: AUUCCGUUGGCGUAAUGGUAACGCGUCUCCCUCCUAAGGAGAAGACUGCGGGUUCGAGUCCCGUACGGGACG [G1A A69G]
-- reply -0.141

-- ask Next entry: ACUCCUUUGGCGUAAUGGUAACGCGUCUCCCUCCUAAGGAGACGAUUGCGGGUUCGAGUCCCGUACGGAUUG [G1A U2C G6U A43C C46U A70U C71U]
-- reply -0.144

-- ask Next entry: GCUCCAUUGGCGUAAUGGUAACGCGUUUCCCUCCUAAGGAGACGAUUGCGGGUUCGAGUCCCGUAAGGAAUG [U2C G6A C27U A43C C46U C66A C71U]
-- reply -0.216

-- ask Next entry: AUUCCUUUGGCGUAAUGGUAACGCGUUUCCCUCCUAAGGAGAAGAUUGCGGGUUCGAGUCCCGUACGGGUCG [G1A G6U C27U C46U A69G A70U]
-- reply -0.299

-- ask Next entry: GCUCCUUUGGCGUAAUGGUAACGCGUCUCCCUCCUAAGGAGACGACUGCGGGUUCGAGUCCCGUAAGGGGUG [U2C G6U A43C C66A A69G A70G C71U]
-- reply -0.0618

-- ask Next entry: AUUCCGUUGGCGUAAUGGUAACGCGUUUCCCUCCUAAGGAGAAGACUGCGGGUUCGAGUCCCGUACGGAGCG [G1A C27U A70G]
-- reply -0.163

-- ask Next entry: GCUCCAUUGGCGUAAUGGUAACGCGUUUCCCUCCUAAGGAGACGACUGCGGGUUCGAGUCCCGUAUGGAAUG [U2C G6A C27U A43C C66U C71U]
-- reply -0.148

-- ask Next entry: GCUCCUUUGGCGUAAUGGUAACGCGUCUCCCUCCUAAGGAGACGAUUGCGGGUUCGAGUCCCGUACGGGUCG [U2C G6U A43C C46U A69G A70U]
-- reply -0.0621

-- ask Next entry: AUUCCAUUGGCGUAAUGGUAACGCGUCUCCCUCCUAAGGAGACGAUUGCGGGUUCGAGUCCCGUAAGGAUUG [G1A G6A A43C C46U C66A A70U C71U]
-- reply -0.171

-- ask Next entry: GUUCCUUUGGCGUAAUGGUAACGCGUCUCCCUCCUAAGGAGACGAUUGCGGGUUCGAGUCCCGUAUGGGAUG [G6U A43C C46U C66U A69G C71U]
-- reply -0.321

-- ask Next entry: GUUCCUUUGGCGUAAUGGUAACGCGUUUCCCUCCUAAGGAGACGACUGCGGGUUCGAGUCCCGUAUGGGAUG [G6U C27U A43C C66U A69G C71U]
-- reply -0.395

-- ask Next entry: AGUCCGUUGGCGUAAUGGUAACGCGUUUCCCUCCUAAGGAGAAGAUUGCGGGUUCGAGUCCCGUACGGGUCG [G1A U2G C27U C46U A69G A70U]
-- reply -0.207

-- ask Next entry: GGUCCUUUGGCGUAAUGGUAACGCGUUUCCCUCCUAAGGAGAAGAUUGCGGGUUCGAGUCCCGUACGGGAUG [U2G G6U C27U C46U A69G C71U]
-- reply -0.205

-- ask Next entry: AGUCCUUUGGCGUAAUGGUAACGCGUCUCCCUCCUAAGGAGACGAUUGCGGGUUCGAGUCCCGUAAGGAGCG [G1A U2G G6U A43C C46U C66A A70G]
-- reply -0.178

-- ask Next entry: GUUCCAUUGGCGUAAUGGUAACGCGUCUCCCUCCUAAGGAGAAGACUGCGGGUUCGAGUCCCGUAUGGAUUG [G6A C66U A70U C71U]
-- reply -0.462

-- ask Next entry: GUUCCAUUGGCGUAAUGGUAACGCGUCUCCCUCCUAAGGAGAAGAUUGCGGGUUCGAGUCCCGUAUGGAGUG [G6A C46U C66U A70G C71U]
-- reply -0.229

-- ask Next entry: GUUCCAUUGGCGUAAUGGUAACGCGUCUCCCUCCUAAGGAGACGACUGCGGGUUCGAGUCCCGUACGGAAUG [G6A A43C C71U]
-- reply -0.144
